Kindly state TGI for each of the entries shown.
- System: RXF 393 renal
- protocolDetails: NCI tumour cell line growth inhibition, 48 h

Take a look at these entries with their results.
>  <compound>
CCOC(=O)c1c(-c2ccc(OC)c(O)c2)c(C#N)c(=S)n(C2OC(COC(C)=O)C(OC(C)=O)C(OC(C)=O)C2OC(C)=O)c1-c1ccccc1 (centres undefined)

>  <TGI>
> 100 µM

$$$$
>  <compound>
CC(C)CCCCCCCCCCCCC(=O)NCC(=O)NC1C(C)OC(Nc2ncnc3nc[nH]c23)C(O)C1O (centres undefined)

>  <TGI>
0.0369 µM

$$$$
>  <compound>
Nc1ccn(CCOC(c2ccccc2)P(=O)(O)O)c(=O)n1 (centres undefined)

>  <TGI>
> 100 µM

$$$$
>  <compound>
CCCCCCCC(=O)OCC1OC(n2cc(F)c(=O)[nH]c2=O)C(N)C(O)C1O (centres undefined)

>  <TGI>
> 100 µM

$$$$
>  <compound>
FC(F)(F)c1cc(NC(=S)N2c3ccccc3-n3cccc3C2c2cccnc2)cc(C(F)(F)F)c1 (centres undefined)

>  <TGI>
35.8 µM

$$$$

Please give TGI, item by item, for the list that follows.
1. O=C(CC1(O)C(=O)Nc2ccc([N+](=O)[O-])cc21)c1ccncc1 (centres undefined)
2. COc1ccc(C(=O)c2nc3ccccc3nc2N2CCN(c3ccccc3)CC2)cc1OC
3. COc1ccc2c(=O)c3c([nH]c2c1)OCC3=O
4. O=C(CC1(O)C(=O)Nc2ccccc21)c1ccc(Cl)cc1Cl (centres undefined)

64.4 µM
> 100 µM
> 100 µM
> 100 µM

---

- Tested on: HCT-15 colon
- protocolDetails: NCI tumour cell line growth inhibition, 48 h; in the data active = GI50 below about 0.43 µM; inactive = the rest
Tick one outcome: active, inactive

>  <compoundStructureString>
CCCCc1n(Cc2ccc3ccccc3n2)cc[n+]1Cc1ccc2ccccc2n1

>  <discreteLabel>
inactive

$$$$

// outcome(item) with item = `O=C1/C(=C/c2ccc(F)cc2)CN(C(=O)C(Cl)Cl)C/C1=C\c1ccc(F)cc1`
active

// outcome(item) with item = `O=c1oc2ccc(Cl)cc2c(=O)n1-c1ccc(F)cc1F`
inactive

// outcome(item) with item = `[Co].[O-]c1cccnc1C=Nc1ccccc1.[OH3+]`
inactive

// outcome(item) with item = `CC1(C)N=c2cc3c(cc2N1c1ccc(Cl)cc1)=Nc1ccccc1N3c1ccc(Cl)cc1`
inactive

---

Kindly state TGI for each of the entries shown.
- System: U251 CNS
- protocolDetails: NCI tumour cell line growth inhibition, 48 h
Peptide text beside a SMILES is read from it. * marks the point of attachment. X34 = O=C(c1ccc(-c2ccc(Cl)cc2Cl)o1)*

>  <compound>
O=C(O)CN1C(=O)CN=C(c2ccccn2)c2cc(Cl)ccc21

>  <tgt>
U251 CNS

>  <TGI>
> 100 µM

$$$$
>  <compound>
O=C(C=Nc1ccccc1S)c1ccco1

>  <tgt>
U251 CNS

>  <TGI>
18.7 µM

$$$$
>  <compound>
CCC[CH2][Sn]1([CH2]CCC)[O]CC[S]1

>  <tgt>
U251 CNS

>  <TGI>
1.64 µM

$$$$
>  <compound>
O=C1c2cn[nH]c2N=C(Nc2ccccc2)C1N=Cc1ccc([N+](=O)[O-])cc1 (stereo unspecified)

>  <tgt>
U251 CNS

>  <TGI>
> 10 µM

$$$$
>  <compound>
c1cc(C2=NCCO2)c2ccsc2c1

>  <tgt>
U251 CNS

>  <TGI>
> 100 µM

$$$$
>  <compound>
N#Cc1ccc([N+](=O)[O-])cc1NC(N)=S

>  <tgt>
U251 CNS

>  <TGI>
> 100 µM

$$$$
>  <compound>
N#Cc1ccc(OCCSCCCCCCCCCCSCCOc2ccc(C#N)cc2)cc1

>  <tgt>
U251 CNS

>  <TGI>
> 100 µM

$$$$
>  <compound>
CS(=O)(=O)NNS(=O)(=O)c1ccc(F)cc1

>  <tgt>
U251 CNS

>  <TGI>
> 100 µM

$$$$
>  <compound>
Cc1[nH]c2ccccc2c1C1=NO/C(=N\O)C(c2c(C)[nH]c3ccccc23)C1 (stereo unspecified)

>  <tgt>
U251 CNS

>  <TGI>
> 100 µM

$$$$
>  <compound>
[C-]#[N+]C(=C\c1ccc(O)cc1)/C(=C/c1ccc(O)cc1)[N+]#[C-]

>  <tgt>
U251 CNS

>  <TGI>
> 23.7 µM

$$$$

Please give TGI, item by item, for the list that follows.
1. C[C@]12CCc3nonc3C1CC[C@@H]1C2CC[C@@]2(C)C1CC[C@@H]2O (stereo partly specified)
2. O=C(CCCC(=O)N/N=C/c1cc(Cl)ccc1O)N/N=C\c1cc(Cl)ccc1O
3. CC(=O)OCC1=CC2OC(=O)C3=COC(OC4OC(CO)C(O)C(O)C4O)C1C32 (stereo unspecified)
4. COC(=O)C(CC(C)C)NC(=O)C(Cc1ccccc1)NC(=O)C1CCCN1C(=O)C(CO)NC(=O)c1ccc(-c2ccc(Cl)cc2Cl)o1 (stereo unspecified) (X34-SPFL-OMe; configuration not given here)
5. CC(C)CNCCc1ccccn1
6. O=C1CCCCN1
7. COc1cc2c(c(OC)c1OC)-c1c(c3ccc([N+](=O)[O-])cc3c(=O)n1CCCBr)C2=O

1: > 100 µM; 2: > 100 µM; 3: > 100 µM; 4: 55.9 µM; 5: > 100 µM; 6: > 1120 µM; 7: > 100 µM

Please give TGI, item by item, for the list that follows.
1. CCOC(=O)c1c2c(n3ccc(NC(=O)CCN4CCCCC4)cc13)C(=O)c1ncccc1C2=O
2. C/C(=C\C(C[C@](C)(O)C(O)CCC#C[Si](C)(C)C)S(=O)(=O)c1ccccc1)CC/C=C/CO[Si](C)(C)C(C)(C)C (stereo partly specified)
3. C#CCOC(=O)/C=C/C(=O)Oc1ccc2c(C)cc(=O)oc2c1

1: 2.47 µM; 2: 26.5 µM; 3: > 100 µM

Fill in: TGI of `[N-]=[N+]=Nc1c(-c2ccccc2)c(=O)n(-c2ccccc2)c2ccccc12` is ___
> 100 µM

---

- System: ACHN renal
- protocolDetails: NCI tumour cell line growth inhibition, 48 h
reportedEndpoint: GI50

Take a look at these entries with their results.
>  <compound>
C#CCOC(=O)/C=C/C(=O)Oc1ccc2c(C)cc(=O)oc2c1

>  <tgt>
ACHN renal

>  <GI50>
> 100 µM

$$$$
>  <compound>
CCCCc1n(Cc2ccc3ccccc3n2)cc[n+]1Cc1ccc2ccccc2n1

>  <tgt>
ACHN renal

>  <GI50>
17 µM

$$$$
>  <compound>
COc1ccc(C2CC(c3ccc(OC)cc3O)=NN2c2ccc(S(N)(=O)=O)cc2)cc1 (stereo not given)

>  <tgt>
ACHN renal

>  <GI50>
5.86 µM

$$$$
>  <compound>
CC(=O)Nc1ccc(OC(C)=O)cc1

>  <tgt>
ACHN renal

>  <GI50>
< 0.01 µM

$$$$

Fill in: GI50 of `CC[O-].CC[O-].O=C([CH-]C(=O)c1ccccc1)CCCCCCC(=O)[CH-]C(=O)c1ccccc1.[Ti+4]` is ___
> 100 µM

---

- System: SF-539 CNS
- protocolDetails: NCI tumour cell line growth inhibition, 48 h; in the data active means GI50 below about 0.43 µM; inactive means the rest
Tick one outcome: active, inactive

// outcome(item) with item = `CC(=O)[CH-]C(C)=O.CC(=O)[CH-]C(C)=O.[Cl-].[O]=[V]`
inactive

---

- System: NCI-H226 lung
- protocolDetails: NCI tumour cell line growth inhibition, 48 h
reportedEndpoint: GI50

>  <compound>
C1C[OH+]CCNCC[OH+]CC[OH+]CCN1.N.[Cl-].[Pt+4]

>  <tgt>
NCI-H226 lung

>  <endpointValue>
38.2 µM

$$$$

Please give GI50, item by item, for the list that follows.
1. CCCCc1n(Cc2ccc3ccccc3n2)cc[n+]1Cc1ccc2ccccc2n1
2. S=C1SCN(Cc2ccccc2)CN1Cc1ccccc1

1: 2.26 µM; 2: > 32.6 µM

Please give GI50, item by item, for the list that follows.
1. Cc1ccc2[nH]c(C(=O)NN3C(=O)C(C)SC34CCC(C)CC4)c(-c3ccccc3)c2c1 (centres undefined)
2. CC1OC(CC(=O)O)Cc2c1c(O)c1c(O)cc(-c3cc(=O)c4c(=O)c5c(c(=O)c=4c3=O)CC(CC(=O)O)OC5C)c(O)c1c2O (centres undefined)
3. O=C(Nc1ccccc1Cl)c1ccc(NC2=C(Cl)C(=O)N(C3CCCCC3)C2=O)cc1
4. CCN(CC)CCn1c(=O)c2cc(OC)c(OC)cc2c2ccc3cc4c(cc3c21)OCO4
5. CC(=O)[CH-]C(C)=O.CC(=O)[CH-]C(C)=O.[Cl-].[O]=[V]
6. Cc1c[nH]c(=O)n(Cc2nnc(CCC(=O)c3nc4ccccc4[nH]3)o2)c1=O

["17.3 µM", "46.8 µM", "9.4 µM", "0.446 µM", "27.5 µM", "3.48 µM"]
